- Test system: Plasmodium falciparum W2 strain (chloroquine resistant)
- test.description: In vitro screening against Plasmodium falciparum, 3H-hypoxanthine incorporation, W2 strain
- Format: cell-based
- protocol.conditions: 66 hours incubation
Property: In vitro activity: IC50; scope: individual compounds
observable: In vitro activity: IC50

CCCNC1OC2OC3(C)CCC4C(C)CCC(C1C)C24OO3 (stereo not shown) [Example 24]: 0.77 ng/mL
CC1CCC2C(C)C(c3ccccc3)OC3OC4(C)CCC1C32OO4 (stereo not shown) [Example 2]: 0.31 ng/mL
COc1cc(OC)c(C2OC3OC4(C)CCC5C(C)CCC(C2C)C35OO4)c(OC)c1 (mixture of isomers) [Example 12]: 0.78 ng/mL
CC1CCC2C(C)C(Nc3ccc(-c4ccccc4)cc3)OC3OC4(C)CCC1C32OO4 (stereo not shown) [Example 20]: 5.81 ng/mL
